Values were extracted from patent US20260242478A1.

# maps each entry to its Phage binding ELISA, Anti-PSMA Fab signal in the presence of PSMA
# TARGET_SYSTEM: T1, Anti-PSMA Fab (SEQ ID NOs: 19, 20)
# T1 construct: In the phage ELISA the Fab was biotinylated and captured on neutravidin coated plates; also called 006 PSMA Fab
# PROTOCOL_TEXT: phage ELISA; PSMA Fab on plate pre-incubated with PSMA antigen as competitor, anti-M13 HRP detection;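 also: crude clonal phage supernatants added to Fab-coated wells still holding PSMA antigen in blocking buffer, with bound phage as read-out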
Where no end group is shown, it is not given here.
Lab note: write the figure by itself, no unit.

A selection of reference data follows.
1) MGNWCIPTWMCTGF (cysteine pairing not given here; also: displayed on phage as pIII fusion, pIII and linker sequences not given here, Clone of the Peptide-180 library) [Phage-1856]; 0.162
2) VDKWCTPIWMCEGF (cysteine pairing not given here; also: displayed on phage as pIII fusion, pIII and linker sequences not given here, Clone of the Peptide-180 library) [Phage-1858]; 0.0951
3) MEKWCIPEWMCLHT (cysteine pairing not given here; also: displayed on phage as pIII fusion, pIII and linker sequences not given here, Clone of the Peptide-180 library) [Phage-1853]; 0.0816
4) MEKWCTPSWMCVGF (cysteine pairing not given here; also: displayed on phage as pIII fusion, pIII and linker sequences not given here, Clone of the Peptide-180 library) [Phage-1855]; 0.148

Looking up PTKLCIPEWMCYVR (cysteine pairing not given here; also: displayed on phage as pIII fusion, pIII and linker sequences not given here, Clone of the Peptide-180 library) [Phage-1850] , I found its Phage binding ELISA, Anti-PSMA Fab signal in the presence of PSMA recorded as 0.0692

Looking up VMKWCIPSWMCSQD (cysteine pairing not given here; also: displayed on phage as pIII fusion, pIII and linker sequences not given here, Clone of the Peptide-180 library) [Phage-1857] , I found its Phage binding ELISA, Anti-PSMA Fab signal in the presence of PSMA recorded as 0.165

Looking up SMHWCTPKWMCEGL (cysteine pairing not given here; also: displayed on phage as pIII fusion, pIII and linker sequences not given here, Clone of the Peptide-180 library) [Phage-1847] , I found its Phage binding ELISA, Anti-PSMA Fab signal in the presence of PSMA recorded as 0.147

Looking up WEKWCTPQWMCELI (cysteine pairing not given here; also: displayed on phage as pIII fusion, pIII and linker sequences not given here, Clone of the Peptide-180 library) [Phage-1854] , I found its Phage binding ELISA, Anti-PSMA Fab signal in the presence of PSMA recorded as 0.182

Looking up VEKWCVPTWMCDWV (cysteine pairing not given here; also: displayed on phage as pIII fusion, pIII and linker sequences not given here, Clone of the Peptide-180 library) [Phage-1859] , I found its Phage binding ELISA, Anti-PSMA Fab signal in the presence of PSMA recorded as 0.0833

Looking up GDNWCKPEWMCIGF (cysteine pairing not given here; also: displayed on phage as pIII fusion, pIII and linker sequences not given here, Clone of the Peptide-180 library) [Phage-1860] , I found its Phage binding ELISA, Anti-PSMA Fab signal in the presence of PSMA recorded as 0.0978

Looking up FSHWCIPEWMCSTS (cysteine pairing not given here; also: displayed on phage as pIII fusion, pIII and linker sequences not given here, Clone of the Peptide-180 library) [Phage-1849] , I found its Phage binding ELISA, Anti-PSMA Fab signal in the presence of PSMA recorded as 0.158

Looking up SEMLCKPSWMCLGF (cysteine pairing not given here; also: displayed on phage as pIII fusion, pIII and linker sequences not given here, Clone of the Peptide-180 library) [Phage-1851] , I found its Phage binding ELISA, Anti-PSMA Fab signal in the presence of PSMA recorded as 0.0726

Looking up AIPWCIPAWMCQVF (cysteine pairing not given here; also: displayed on phage as pIII fusion, pIII and linker sequences not given here, Clone of the Peptide-180 library) [Phage-1848] , I found its Phage binding ELISA, Anti-PSMA Fab signal in the presence of PSMA recorded as 0.234

Looking up PSMRCIPEWMCAML (cysteine pairing not given here; also: displayed on phage as pIII fusion, pIII and linker sequences not given here, Clone of the Peptide-180 library) [Phage-1846] , I found its Phage binding ELISA, Anti-PSMA Fab signal in the presence of PSMA recorded as 0.0824

Looking up WDHWCTPAWMCEFV (cysteine pairing not given here; also: displayed on phage as pIII fusion, pIII and linker sequences not given here, Clone of the Peptide-180 library) [Phage-1852] , I found its Phage binding ELISA, Anti-PSMA Fab signal in the presence of PSMA recorded as 0.0692
